Biological target: recombinant human DHODH (Homo sapiens)
Construct: N-terminally truncated (first 29 amino acids) human DHODH
Sequence (Q02127 29-395): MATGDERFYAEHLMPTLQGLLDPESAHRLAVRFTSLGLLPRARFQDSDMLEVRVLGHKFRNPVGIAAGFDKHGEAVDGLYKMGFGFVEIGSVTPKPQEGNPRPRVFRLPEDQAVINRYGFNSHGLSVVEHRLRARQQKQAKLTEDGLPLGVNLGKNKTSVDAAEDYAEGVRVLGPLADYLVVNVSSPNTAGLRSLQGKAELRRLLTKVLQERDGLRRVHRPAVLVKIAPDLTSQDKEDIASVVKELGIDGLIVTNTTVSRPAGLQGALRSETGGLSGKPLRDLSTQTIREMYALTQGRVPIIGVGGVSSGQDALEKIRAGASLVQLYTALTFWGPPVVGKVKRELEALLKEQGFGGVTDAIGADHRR
Assay: recombinant DHODH enzymatic assay (DCIP reduction)
Conditions: 25°C, DCIP reduction at 600 nm
Attribute: pIC50
Here pIC50 is given on a logarithmic scale as minus log10 of the concentration in mol/L.

Worked examples follow.
Compound	Reported result
Cc1c(Cc2ccccc2)c(OC(C)C)nn1-c1ccc(C2CC2)cn1	6.89
Cc1c(Cc2ccccc2F)c(OC(C)C)nn1-c1ncc(C2CC2)cn1	7.89
CC(C)Oc1nn(-c2ncc(C3CC3)cn2)cc1Oc1ccccc1F	7.32
Cc1c(C(O)c2ccccc2)c(OC(C)C)nn1-c1ncc(C2CC2)cn1 (stereo not shown)	7.80
CCOc1nn(-c2ncc(CC)cn2)c(C)c1Oc1ccccc1Br	5.94

Inquiry: Reported pIC50, compound c1ccc(-c2ccn(-c3ncc(C4CC4)cn3)n2)cc1 : ____
Reply text: 4.64

Inquiry: Reported pIC50, compound CCc1cnc(-n2nc(OC(C)C)c(Oc3c(F)cccc3F)c2C)nc1 : ____
Reply text: 7.89
